targetUnderTest: Human PD-L1/PD-1 (Homo sapiens)
Construct: TVMV protease cleavage site (C); made in house; host or cells: HEK293T cells
measurementDescription: HTRF Human PD-L1/PD-1 binding assay (PD-1-Ig/PD-L1-His)
studyConditions: PD-L1-His 10 nM, PD-1-Ig 20 nM; class symbol; read-out: HTRF Human PD-L1/PD-1 Binding Assay IC50 Range
Where a SMILES comes first, the peptide text is derived from it. Bridges are numbered along the chain shown (N, C = ends). [ ]: non-standard residue; d: D form. ξ: configuration not given here. Lac(3-(indol-3-yl)) = O=C(O)[C@@H](O)Cc1c[nH]c2ccccc12; Bta = N[C@@H](Cc1csc2ccccc12)C(=O)O; Hyp = O=C(O)[C@@H]1C[C@@H](O)CN1; NMeNle = CCCC[C@H](NC)C(=O)O; dNle = CCCC[C@@H](N)C(=O)O; NMeA = CN[C@@H](C)C(=O)O; ξC = NC(CS)C(=O)O
valueKind: IC50

>>> obsvalue("CCCC[C@H]1C(=O)N(C)[C@@H](C)C(=O)N[C@@H](CCCNC(=N)N)C(=O)NC(C(=O)NCC(N)=O)CSCC(=O)N[C@@H](Cc2ccc(O)cc2)C(=O)N(C)[C@@H](C)C(=O)N[C@@H](CC(N)=O)C(=O)N2CCC[C@H]2C(=O)N[C@@H](Cc2cnc[nH]2)C(=O)N[C@H](CO)C(=O)N2C[C@H](O)C[C@H]2C(=O)N[C@@H](Cc2c[nH]c3ccccc23)C(=O)N[C@@H](CO)C(=O)N[C@@H](Cc2csc3ccccc23)C(=O)N1C (some centres unmarked) [Example 9120] ({CH2CO}-Y[NMeA]NPH[dS][Hyp]WS[Bta][NMeNle][NMeA]R[ξC]G-NH2; thioether N-14)")
"10 to 99.9 nM"
>>> obsvalue("CCCC[C@H]1NC(=O)[C@H](Cc2csc3ccccc23)NC(=O)[C@H](CO)NC(=O)[C@H](Cc2c[nH]c3ccccc23)OC(=O)[C@@H]2CCCN2C(=O)[C@H](CC(C)C)NC(=O)[C@H](Cc2cnc[nH]2)NC(=O)[C@@H]2CCCN2C(=O)[C@H](CC(N)=O)NC(=O)[C@H](C)N(C)C(=O)[C@H](Cc2ccc(O)cc2)NC(=O)CSCC(C(=O)NCC(N)=O)NC(=O)[C@H](CCCNC(=N)N)NC(=O)[C@H](CCCC)N(C)C1=O (some centres unmarked) [Example 10122] ({CH2CO}-Y[NMeA]NPHLP[Lac(3-(indol-3-yl))]S[Bta][dNle][NMeNle]R[ξC]G-NH2; thioether N-14)")
"1000 to 10000 nM"

---

targetUnderTest: Human PD-L1/PD-1 (Homo sapiens, UniProt Q9NZQ7)
Construct: TVMV protease cleavage site (C); made in house; host or cells: HEK293T cells
Sequence (Q9NZQ7 with tags, fused parts or gaps): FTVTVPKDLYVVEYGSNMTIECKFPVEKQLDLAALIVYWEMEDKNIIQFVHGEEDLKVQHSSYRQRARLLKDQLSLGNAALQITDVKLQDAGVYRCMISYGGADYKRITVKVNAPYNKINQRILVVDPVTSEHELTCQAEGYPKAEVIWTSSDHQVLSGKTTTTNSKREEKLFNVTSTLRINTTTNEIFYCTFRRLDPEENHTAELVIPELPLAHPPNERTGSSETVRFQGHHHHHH
measurementDescription: HTRF Human PD-L1/PD-1 binding assay (PD-1-Ig/PD-L1-His)
studyConditions: PD-L1-His 10 nM, PD-1-Ig 20 nM; class symbol; read-out: HTRF Human PD-L1/PD-1 Binding Assay IC50 Range
Where a SMILES comes first, the peptide text is derived from it. Bridges are numbered along the chain shown (N, C = ends). [ ]: non-standard residue; d: D form. ξ: configuration not given here. NMeNle = CCCC[C@H](NC)C(=O)O; hSer = N[C@@H](CCO)C(=O)O; NMeA = CN[C@@H](C)C(=O)O; ξC = NC(CS)C(=O)O
Parameter IC50: see the listing below.
valueKind: IC50

>>> obsvalue("CCCC[C@H]1C(=O)N(C)[C@@H](CCCC)C(=O)N[C@@H](C)C(=O)N[C@H](C(=O)NCC(N)=O)CSCC(=O)N[C@@H](Cc2ccc(O)cc2)C(=O)N2CCOC[C@H]2C(=O)N[C@@H](CC(=O)O)C(=O)N2CCC[C@H]2C(=O)N[C@@H](Cc2c[nH]cn2)C(=O)N[C@@H](CC(C)C)C(=O)N2C[C@H](O)C[C@H]2C(=O)N[C@@H](Cc2c[nH]c3ccccc23)C(=O)N[C@@H](CO)C(=O)N[C@@H](Cc2c[nH]c3ccccc23)C(=O)N1C")
"1 to 9.9 nM"
>>> obsvalue("CCCC[C@H]1C(=O)N(C)[C@@H](CCCC)C(=O)N[C@@H](CCCNC(=N)N)C(=O)NC(C(=O)NCC(N)=O)CSCC(=O)N[C@@H](Cc2ccc(O)cc2)C(=O)N(C)[C@@H](C)C(=O)N[C@@H](CC(N)=O)C(=O)N2CCC[C@H]2C(=O)N[C@@H](CCO)C(=O)N[C@@H](CO)C(=O)N2CCC[C@H]2C(=O)N[C@@H](Cc2c[nH]c3ccccc23)C(=O)N[C@@H](CO)C(=O)N[C@@H](Cc2c[nH]c3ccccc23)C(=O)N1C (some centres unmarked) [Example 10034] ({CH2CO}-Y[NMeA]NP[hSer]SPWSW[NMeNle][NMeNle]R[ξC]G-NH2; thioether N-14)")
"1 to 9.9 nM"

---

targetUnderTest: Human PD-L1/PD-1 (Homo sapiens, UniProt Q9NZQ7)
Construct: TVMV protease cleavage site (C); made in house; host or cells: HEK293T cells
measurementDescription: HTRF Human PD-L1/PD-1 binding assay (PD-1-Ig/PD-L1-His)
studyConditions: PD-L1-His 10 nM, PD-1-Ig 20 nM; class symbol; read-out: HTRF Human PD-L1/PD-1 Binding Assay IC50 Range
pIC50: −log10 of the molar value. Where a SMILES comes first, the peptide text is derived from it. Bridges are numbered along the chain shown (N, C = ends). [ ]: non-standard residue; d: D form. Hyp = O=C(O)[C@@H]1C[C@@H](O)CN1; NMeNle = CCCC[C@H](NC)C(=O)O; NMeA = CN[C@@H](C)C(=O)O
valueKind: pIC50

>>> obsvalue("CCCC[C@H]1C(=O)N(C)[C@@H](CCCC)C(=O)N[C@@H](CCCCN)C(=O)N[C@H](C(=O)NCC(N)=O)CSCC(=O)N[C@@H](Cc2ccc(O)cc2)C(=O)N(C)[C@@H](C)C(=O)N[C@@H](CC(=O)O)C(=O)N2CCC[C@H]2C(=O)N[C@@H](Cc2c[nH]cn2)C(=O)N[C@@H](CC(C)C)C(=O)N2C[C@H](O)C[C@H]2C(=O)N[C@@H](Cc2c[nH]c3ccccc23)C(=O)N[C@@H](CO)C(=O)N[C@@H](Cc2c[nH]c3ccccc23)C(=O)N1C [Example 11002] ({CH2CO}-Y[NMeA]DPHL[Hyp]WSW[NMeNle][NMeNle]KCG-NH2; thioether N-14)")
"8.00 to 9.00"

---

targetUnderTest: Human PD-L1/PD-1 (Homo sapiens, UniProt Q9NZQ7)
Construct: TVMV protease cleavage site (C); made in house; host or cells: HEK293T cells
measurementDescription: HTRF Human PD-L1/PD-1 binding assay (PD-1-Ig/PD-L1-His)
studyConditions: PD-L1-His 10 nM, PD-1-Ig 20 nM; class symbol; read-out: HTRF Human PD-L1/PD-1 Binding Assay IC50 Range
pIC50: −log10 of the molar value. Where a SMILES comes first, the peptide text is derived from it. Bridges are numbered along the chain shown (N, C = ends). [ ]: non-standard residue; d: D form. Phe(4-F) = N[C@@H](Cc1ccc(F)cc1)C(=O)O; NMeF = CN[C@@H](Cc1ccccc1)C(=O)O; NMeL = CN[C@@H](CC(C)C)C(=O)O; NMeNle = CCCC[C@H](NC)C(=O)O; dPip = O=C(O)[C@H]1CCCCN1; dThz = O=C(O)[C@H]1CSCN1
valueKind: pIC50

>>> obsvalue("CCCC[C@H]1C(=O)N2CCC[C@@H]2C(=O)N[C@@H](CC(=O)O)C(=O)N[C@@H](C(C)C)C(=O)N(C)[C@@H](CC(C)C)C(=O)N[C@@H](CCC(N)=O)C(=O)N2CCCC[C@@H]2C(=O)N[C@@H](Cc2c[nH]c3ccccc23)C(=O)N[C@@H](Cc2ccc(O)cc2)C(=O)N[C@@H](CC(C)C)C(=O)N[C@H](C(=O)NCC(N)=O)CSCC(=O)N[C@@H](Cc2ccc(F)cc2)C(=O)N(C)[C@@H](Cc2ccccc2)C(=O)N1C [Example 9254] ({CH2CO}-[Phe(4-F)][NMeF][NMeNle][dP]DV[NMeL]Q[dPip]WYLCG-NH2; thioether N-13)")
"5.00 to 6.00"
>>> obsvalue("CCCC[C@H]1C(=O)N2CSC[C@@H]2C(=O)N[C@@H](CC(=O)O)C(=O)N[C@@H](C(C)C)C(=O)N(C)[C@@H](Cc2ccccc2)C(=O)N[C@@H](Cc2ccc(O)cc2)C(=O)N2CCC[C@@H]2C(=O)N[C@@H](Cc2c[nH]c3ccccc23)C(=O)N[C@@H](Cc2ccc(O)cc2)C(=O)N[C@@H](CC(C)C)C(=O)N[C@H](C(=O)NCC(N)=O)CSCC(=O)N[C@@H](Cc2ccccc2)C(=O)N(C)[C@@H](Cc2ccccc2)C(=O)N1C [Example 10072] ({CH2CO}-F[NMeF][NMeNle][dThz]DV[NMeF]Y[dP]WYLCG-NH2; thioether N-13)")
"8.00 to 9.00"
